Attribution: the Immune Epitope Database (IEDB)

Target: HLA-A*31:01
Assay: IEDB peptide-MHC binding, purified MHC/competitive/radioactivity; filed as Kd, often an IC50 or EC50 that approximates it; bounds were set here for any values at or beyond the usual limits of such assays
Conditions: source organism: Mammarenavirus juninense
pKd: −log10 of the molar value.
metric: pKd

>>> print(df.to_string())
     residues  obs_value
0  NYTKFWYVNH       6.00

----------
Molecular target: HLA-A*03:19
Assay: IEDB peptide-MHC binding, purified MHC/competitive/fluorescence; filed as Kd, often an IC50 or EC50 that approximates it; bounds were set here for any values at or beyond the usual limits of such assays
Conditions: source organism: human gammaherpesvirus 4
metric: Kd (nM)

    residues  obs_value
0  WPTPKTHPV       1080
